Reported E. coli (ATCC 25922) MIC values for the following compounds.
- Test system: Escherichia coli (ATCC 25922)
- Condition: ATCC 25922
Positions of bridges follow the written chain, without caps; N, C: chain ends. Residues, ends and D or L forms follow the SMILES beside them.
Respond with the figure and its unit, in that order.

Sample records with E. coli (ATCC 25922) MIC:
N=C(N)NCCC[C@@H]1NC(=O)[C@H](CCCNC(=N)N)NC(=O)[C@H](CCCNC(=N)N)NC(=O)[C@@H]2CSSC[C@H](NC(=O)[C@H](CCCNC(=N)N)NC1=O)C(=O)N[C@@H](Cc1c[nH]c3ccccc13)C(=O)N[C@@H](Cc1c[nH]c3ccccc13)C(=O)N[C@@H](Cc1c[nH]c3ccccc13)C(=O)N[C@@H](Cc1c[nH]c3ccccc13)C(=O)N2 [IFX-330] (cyclo(RRRCWWWWCR); disulfide 4-9) = 32 µg/mL
N=C(N)NCCC[C@@H]1NC(=O)[C@H](CS)NC(=O)[C@H](Cc2c[nH]c3ccccc23)NC(=O)[C@H](Cc2c[nH]c3ccccc23)NC(=O)[C@H](Cc2c[nH]c3ccccc23)NC(=O)[C@H](Cc2c[nH]c3ccccc23)NC(=O)[C@H](CS)NC(=O)[C@H](CCCNC(=N)N)NC(=O)[C@H](CCCNC(=N)N)NC(=O)[C@H](CCCNC(=N)N)NC1=O [IFX-329] (cyclo(RRRCWWWWCR)) = 32 µg/mL

Switching to the query record.
Query N=C(N)NCCC[C@@H]1NC(=O)[C@H](CCCNC(=N)N)NC(=O)[C@H](CCCNC(=N)N)NC(=O)[C@H](CCCNC(=N)N)NC(=O)[C@@H](N)CSSC[C@@H](C(=O)O)NC(=O)[C@H](Cc2c[nH]c3ccccc23)NC(=O)[C@H](Cc2c[nH]c3ccccc23)NC(=O)[C@H](Cc2c[nH]c3ccccc23)NC(=O)[C@H](Cc2c[nH]c3ccccc23)NC1=O [IFX-327] (H-CRRRRWWWWC-OH; disulfide 1-10) yields E. coli (ATCC 25922) MIC of 256 µg/mL
